Recorded arrestin 2 recruitment (BRET): Emax by entry
measuredTarget: T1, Flag-PTHR1-YFP (UniProt Q03431 27-593); further: unit not given here
T1 sequence (looked up): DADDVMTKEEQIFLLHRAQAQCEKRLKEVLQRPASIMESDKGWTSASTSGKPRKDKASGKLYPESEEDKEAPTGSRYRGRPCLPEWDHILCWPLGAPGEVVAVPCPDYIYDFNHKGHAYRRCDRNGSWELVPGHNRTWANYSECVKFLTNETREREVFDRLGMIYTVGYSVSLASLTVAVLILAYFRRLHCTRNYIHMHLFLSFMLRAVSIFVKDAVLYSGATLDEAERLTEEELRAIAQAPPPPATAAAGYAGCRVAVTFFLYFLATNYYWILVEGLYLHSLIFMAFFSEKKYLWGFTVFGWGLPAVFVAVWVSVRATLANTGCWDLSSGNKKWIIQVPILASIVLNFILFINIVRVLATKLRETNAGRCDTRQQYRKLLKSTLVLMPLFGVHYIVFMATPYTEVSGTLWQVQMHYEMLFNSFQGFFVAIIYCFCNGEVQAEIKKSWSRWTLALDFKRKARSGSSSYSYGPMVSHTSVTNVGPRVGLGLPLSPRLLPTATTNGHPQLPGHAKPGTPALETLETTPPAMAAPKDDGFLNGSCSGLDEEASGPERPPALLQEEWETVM
testSummary: cell-based or functional assay

Record excerpt, results attached:
AVAEIQLMHQRAKWAIQEIGIKITRELLERYL [R2-42]: 7.53
AVAEIQLMHQRAKWGLEIELLKLLLSLLKEYI [R2-45]: 16.1
AVAEIQLMHQRAKWKILEELLKILIDLLKQYI [R2-48]: 6.42
AVAEIQLMHQRAKWDLLIELVKLLHELLKEYI [R2-40]: 13.9
AVAEIQLMHQRAKWEIQEIGIKITLELLKEYI [R2-37]: 17

Alright, here's another binder for you.
[in] Any idea what arrestin 2 recruitment (BRET): Emax was measured for AVAEIQLMHQRAKWGVELQLKVDLRRILEDVY [R2-35] ?
[out] 35.8
